system: Streptococcus equinus; assay: In vitro minimum inhibitory concentration against Streptococcus bovis A5169 using brain-heart infusion agar; format: functional
VALUE_KIND: log10(MIC) (log10 of the value in µg/mL)

{"COMPOUND": "NC1CCN(c2nc3c(cc2F)c(=O)c(C(=O)O)cn3C2CC2)C1 (centres undefined)", "log10(MIC)": -0.11}
{"COMPOUND": "O=C(O)c1cn(C2CC2)c2c(F)c(N3CC/C(=N\\O)C3)c(F)cc2c1=O", "log10(MIC)": -0.70}
{"COMPOUND": "CO/N=C1/CCN(c2cc3c(cc2F)c(=O)c(C(=O)O)cn3-c2ccc(F)cc2F)C1", "log10(MIC)": 0.19}
{"COMPOUND": "O=C(O)c1cn(-c2ccc(F)cc2F)c2nc(N3CCC(=NO)CC3)c(F)cc2c1=O", "log10(MIC)": 0.49}
{"COMPOUND": "O=C1CCN(c2c(F)cc3c(=O)c(C(=O)O)cn(C4CC4)c3c2F)C1", "log10(MIC)": 1.70}
{"COMPOUND": "O=C(O)c1cn(C2CC2)c2nc(N3CC/C(=N\\O)C3)c(F)cc2c1=O", "log10(MIC)": -0.11}
{"COMPOUND": "CON=C1CCN(c2c(F)cc3c(=O)c(C(=O)O)cn(C4CC4)c3c2F)CC1", "log10(MIC)": 0.49}
{"COMPOUND": "O=C(O)c1cn(-c2ccc(F)cc2F)c2cc(N3CC/C(=N/O)C3)c(F)cc2c1=O", "log10(MIC)": -0.41}
{"COMPOUND": "CO/N=C1\\CCN(c2nc3c(cc2F)c(=O)c(C(=O)O)cn3C2CC2)C1", "log10(MIC)": 0.19}
{"COMPOUND": "CON=C1CCN(c2cc3c(cc2F)c(=O)c(C(=O)O)cn3-c2ccc(F)cc2F)CC1", "log10(MIC)": 0.79}
{"COMPOUND": "O=C(O)c1cn(-c2ccc(F)cc2F)c2cc(N3CCC(=NO)CC3)c(F)cc2c1=O", "log10(MIC)": 0.19}
{"COMPOUND": "NC1CCN(c2nc3c(cc2F)c(=O)c(C(=O)O)cn3-c2ccc(F)cc2F)C1 (centres undefined) [TOSUFLOXACIN]", "log10(MIC)": -0.41}
